- Tested on: C-33-A
- Assay protocol: Cytotoxicity against human C33A cells in oxic condition after 4 hrs by sulforhodamine B assay
- Format: functional, cell-based
Recorded metric: IC50 (µM)
Answers are plain numbers, in µM.

Ask | Tell me the measured IC50 of CN(C)CCOc1ccc2[nH]c(C(=O)N3CC(CCl)c4c3cc([N+](=O)[O-])c3cc(S(N)(=O)=O)ccc43)cc2c1 (stereo unspecified) , please.
Reply | 0.5

====

- Tested on: HT-29
- Assay protocol: Cytotoxicity against human HT-29 cells in oxic condition after 4 hrs by sulforhodamine B assay
- Format: functional, cell-based
- Assay context: HT-29, 4 h
pIC50: −log10 of the molar value.
Label scheme for pIC50: lower than 5 is N, 5 and above is Y.

Example cases with answers are listed next.
                                   molecule  assigned_class
0  COc1cc2cc(C(=O)N3CC(CCl)c4c3cc([N+](=O)[O-])c3ccccc43)[nH]c2c(OC)c1OC (stereo not given)               Y
1  CN(C)CCOc1ccc2[nH]c(C(=O)N3CC(CCl)c4c3cc(N)c3cc(C(N)=O)ccc43)cc2c1 (stereo not given)               N
2  COc1cc2cc(C(=O)N3CC(CCl)c4c3cc(N)c3ccccc43)[nH]c2c(OC)c1OC (stereo not given)               Y

Ask | Check this molecule for pIC50 at or above 5: CN(C)CCOc1ccc2[nH]c(C(=O)N3CC(CCl)c4c3cc(N)c3ccc(S(C)(=O)=O)cc43)cc2c1 (stereo not given)
Reply | N
